B1: PLD5 (parent)
chain: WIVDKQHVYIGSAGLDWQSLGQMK

Variants of: B1
Test: protein stability index of a GFP-peptide fusion (GPS, HEK-293T) (PSI 1-6); higher = more stable;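 note: lentivirally expressed fusions sorted by FACS into six bins by GFP to DsRed ratio, PSI derived from sequencing read proportions per bin multiplied by bin number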
Settings: c terminus: a fixed tail appended
Decision: protein stability index >= 2 yields rule met, all other cases yield rule not met.

1) W17I = rule not met
2) K24E = rule met
3) K24C = rule met
